# study-system: TRα (Homo sapiens)
# Construct: 5 μL of 4×TR beta/alfa-LBD; purchased Invitrogen PV4687
# Sequence (P10827 163-410 isoform P10827-2 limits assumed, other chains not shown): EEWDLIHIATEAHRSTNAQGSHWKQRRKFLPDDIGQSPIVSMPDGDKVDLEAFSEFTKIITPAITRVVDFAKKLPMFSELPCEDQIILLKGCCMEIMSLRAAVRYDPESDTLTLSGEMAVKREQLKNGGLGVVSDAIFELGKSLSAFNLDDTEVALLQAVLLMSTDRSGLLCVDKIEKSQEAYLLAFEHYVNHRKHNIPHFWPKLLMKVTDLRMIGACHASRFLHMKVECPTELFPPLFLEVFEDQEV
# assay-overview: LanthaScreen TR-FRET Thyroid Receptor alfa Coactivator Assay (in vitro binding activity)
# experimental-context: TR alfa-LBD
attribute-measured: EC50

Reference set, count: 4
INSERT INTO assay_data (molecule, attribute_measured, value_observed) VALUES
  ('N#Cc1nn(-c2cc(Cl)c(Oc3ccc4c(c3)CCN(Cc3ccc(F)cc3)C4=O)c(Cl)c2)c(=O)[nH]c1=O [Example 20d]', 'EC50', '> 100 µM'),
  ('N#Cc1nn(-c2cc(Cl)c(Oc3ccc4c(c3)CCNC4=O)c(Cl)c2)c(=O)[nH]c1=O [Example 1]', 'EC50', '> 100 µM'),
  ('N#Cc1nn(-c2cc(Cl)c(Oc3ccc4c(c3)CCN(COCC(F)F)C4=O)c(Cl)c2)c(=O)[nH]c1=O [Example 15]', 'EC50', '0.176 µM'),
  ('N#Cc1nn(-c2cc(Cl)c(Oc3ccc4c(c3)NC(=O)CC4)c(Cl)c2)c(=O)[nH]c1=O [Example 8]', 'EC50', '> 100 µM');

Please give EC50 for each item listed below.
1. O=C1c2ccc(Oc3c(Cl)cc(-n4ncc(=O)[nH]c4=O)cc3Cl)cc2CCN1CC1CCOCC1 [Example 23]
2. O=C1c2ccc(Oc3c(Cl)cc(-n4ncc(=O)[nH]c4=O)cc3Cl)cc2CCN1c1ccc(F)cc1 [Example 28]
3. O=C1c2ccc(Oc3c(Cl)cc(-n4ncc(=O)[nH]c4=O)cc3Cl)cc2CCN1c1cccnc1 [Example 49]
4. O=C1NCCc2cc(Oc3c(Cl)cc(-n4ncc(=O)[nH]c4=O)cc3Cl)ccc21 [Example 17]
5. N#Cc1nn(-c2cc(Cl)c(Oc3ccc4c(c3)CCN(CC3CC3)C4=O)c(Cl)c2)c(=O)[nH]c1=O [Example 38]
6. N#Cc1nn(-c2cc(Cl)c(Oc3ccc4c(c3)CCN(c3ncccn3)C4=O)c(Cl)c2)c(=O)[nH]c1=O [Example 50f]
7. O=C1c2ccc(Oc3c(Cl)cc(-n4ncc(=O)[nH]c4=O)cc3Cl)cc2CCN1Cc1ccc(C(F)(F)F)cc1 [Example 29]

// result
["0.386 µM", "> 100 µM", "> 100 µM", "0.311 µM", "< 0.046 µM", "2.62 µM", "> 100 µM"]
